Source listed as BindingDB's records for doi:10.1021/acs.jmedchem.8b01602.

Assay: Inhibition of mouse GAT2 expressed in HEK293 cells assessed as reduction in [3H]GABA uptake preincubated for 25 mins followed by [3H]GABA addition and measured after 10 mins by liquid scintillation counting method
pIC50: −log10 of the molar value.
Here, each record is paired with measured pIC50 data.
endpoint_label: pIC50

>>> reported("O=C(O)[C@H]1CNC[C@@H](CCN/N=C/c2ccc(-c3ccc(C(F)(F)F)cc3Cl)o2)C1")
4.27
>>> reported("O=C(O)[C@H]1CNC[C@@H](CCN/N=C/c2ccc(-c3ccc(Cl)cc3Cl)o2)C1")
4.27

* * *

Here, each record is paired with measured IC50 data.
Experiment: Inhibition of mouse GAT3 expressed in HEK293 cells assessed as reduction in [3H]GABA uptake preincubated for 25 mins followed by [3H]GABA addition and measured after 4 mins by liquid scintillation counting method
endpoint_label: IC50

>>> reported("O=C(O)[C@H]1CNC[C@@H](CN/N=C/c2ccc(-c3cccc4ccccc34)o2)C1")
"33.1 µM"
>>> reported("O=C(O)[C@H]1CNC[C@@H](CCN/N=C/c2ccc(-c3ccc(Cl)cc3Cl)o2)C1")
"25.7 µM"
>>> reported("O=C(O)[C@H]1CNC[C@@H](CCN/N=C/c2ccc(-c3ccc(C(F)(F)F)cc3Cl)o2)C1")
"58.9 µM"
